Tested on: Fibroblast
protocol.notes: Multiplex assay against human fibroblast
Format: toxicity, cell-based
condition.info: 12 h, 10 µM, compound concentration 10 uM, replicate 2
Consider the following compounds; for each one, report its Population Mitochondria Different-Phenotype (%).
Give bare numbers, in %.

Give Population Mitochondria Different-Phenotype (%) for all compounds that follow.
1. Cc1ccc(C(=O)Nc2cccc(C(F)(F)F)c2)cc1Nc1nc(-c2cccnc2)nc2c1cnn2C
2. CCc1cccc(CC)c1NC(=O)c1nn(C)c2c1CCc1cnc(Nc3ccc(N4CCN(C)CC4)cc3OC)nc1-2
3. CCN1CCN(c2ccc(Nc3cc(N(C)C(=O)Nc4c(Cl)c(OC)cc(OC)c4Cl)ncn3)cc2)CC1
4. Cc1cc(C)c(S(=O)(=O)N(Cc2ccc(-c3cccc(S(C)(=O)=O)c3)cc2)Cc2ccc(C(F)(F)F)o2)c(C)c1
5. O=C(Nc1ccc(-n2nc(-c3cccnc3)cc2C(F)(F)F)cn1)c1ccc(-c2ccccc2)c(F)c1
6. O=C(Nc1ccc(-c2ccnc(Nc3ccc(N4CCOCC4)cc3)n2)cc1)[C@@H]1CCCN1
7. COc1ccc(-c2ccc3c(N4CCOCC4)nc(N4C[C@@H](C)O[C@@H](C)C4)nc3n2)cc1CO

Given back:
92
30
5
3
12
28
42

---

Consider the following molecules; for each one, report its Population Mitotic Cells (%).
Tested on: HEK-293T
protocol.notes: Multiplex assay against HEK293T
Assay type: toxicity, cell-based
condition.info: human, 24 h, 1 µM, compound concentration 1 uM, replicate 1

Observe how each entry below is paired with its result.
{"substance.smiles": "CNc1cc(Oc2cc(C(=O)Nc3cc(N4CCN(C)CC4)cc(C(F)(F)F)c3)ccc2C)ncn1", "Population Mitotic Cells (%)": "26%"}
{"substance.smiles": "NC(=O)c1cccc(-c2cc(Nc3ccc(OC(F)(F)F)cc3)ncn2)c1", "Population Mitotic Cells (%)": "77%"}
{"substance.smiles": "O=C1NC(=O)C(c2cnc3ccccn23)=C1c1cn2c3c(cc(F)cc13)CN(C(=O)N1CCCCC1)CC2", "Population Mitotic Cells (%)": "46%"}
{"substance.smiles": "CCCS(=O)(=O)c1nc(NC2CC2)cc(-c2ccc3c(ccn3C3CC(C)(C)NC(C)(C)C3)c2)n1", "Population Mitotic Cells (%)": "39%"}
{"substance.smiles": "Cc1ccc(C(=O)Nc2cccc(C(F)(F)F)c2)cc1Nc1nc(-c2cccnc2)nc2c1cnn2C", "Population Mitotic Cells (%)": "35%"}
{"substance.smiles": "O=C(Nc1cccnn1)N1CCC(=Cc2cccc(Oc3ccc(C(F)(F)F)cn3)c2)CC1", "Population Mitotic Cells (%)": "68%"}
{"substance.smiles": "COC(=N)c1nc2ccc3ncnc(Nc4ccc(OC)cc4F)c3c2s1", "Population Mitotic Cells (%)": "80%"}
{"substance.smiles": "CCn1c(=O)c(-c2ccc(-c3cncs3)cc2Cl)cc2cnc(Nc3ccc(N4CCN(C)CC4)cc3)nc21", "Population Mitotic Cells (%)": "42%"}

Asked: What Population Mitotic Cells (%) value was documented for this molecule, Cl.O=C(c1ccc(Nc2nccc(-c3cc4ccccc4s3)n2)cc1)N1CCC(N2CCCC2)CC1 ?
Given back: 82%

---

Tested on: HEK-293T
protocol.notes: Multiplex assay against HEK293T
Format: toxicity, cell-based
condition.info: human, 48 h, 10 µM, compound concentration 10 uM, replicate 1
test.readout: Population Healthy Nuclei (%)
One number for each entry, in %.

Observe how each entry below is paired with its result.
{"compound": "CCCS(=O)(=O)c1nc(NC2CC2)cc(-c2ccc3c(ccn3C3CC(C)(C)NC(C)(C)C3)c2)n1", "measure.unit": "%", "data.value": 3}
{"compound": "CCc1cccc(CC)c1NC(=O)c1nn(C)c2c1CCc1cnc(Nc3ccc(C(=O)NC4CCN(C)CC4)cc3OC(F)(F)F)nc1-2", "measure.unit": "%", "data.value": 52}
{"compound": "Cl.Oc1ccc2c3c1O[C@H]1c4[nH]c5c(c4C[C@@]4(O)[C@@H](C2)N(CC2CC2)CC[C@]314)C[C@@]1(O)[C@H]2Cc3ccc(O)c4c3[C@@]1(CCN2CC1CC1)[C@H]5O4", "measure.unit": "%", "data.value": 69}

Please look at the following compound next.
Asked: What Population Healthy Nuclei (%) value was documented for this compound, CN1C2CCC1CC(OC(c1ccc(F)cc1)c1ccc(F)cc1)C2.Cl (centres undefined) ?
Given back: 8

---

Tested on: Fibroblast
protocol.notes: Multiplex assay against human fibroblast
Assay type: toxicity, cell-based
condition.info: 48 h, 10 µM, compound concentration 10 uM, replicate 2
Consider the following compounds; for each one, report its Population Healthy Nuclei (%).
Give bare numbers, in %.

Observe how each entry below is paired with its result.
{"compound": "CCCS(=O)(=O)c1nc(NC2CC2)cc(-c2ccc3c(ccn3C3CC(C)(C)NC(C)(C)C3)c2)n1", "assay.target": "Fibroblast", "Population Healthy Nuclei (%)": 15}
{"compound": "Cl.O=c1c2cccn2c2ccccc2n1CCCN1CCC(c2ccc(Cl)cc2)CC1", "assay.target": "Fibroblast", "Population Healthy Nuclei (%)": 52}
{"compound": "Cc1cc(C)c(S(=O)(=O)N(Cc2ccc(-c3cccc(S(C)(=O)=O)c3)cc2)Cc2ccc(C(F)(F)F)o2)c(C)c1", "assay.target": "Fibroblast", "Population Healthy Nuclei (%)": 77}
{"compound": "CCOC(=O)c1c(C)[nH]c2ccc3c(c12)CN1CCc2cc(OC)ccc2C1O3 (configuration not stated)", "assay.target": "Fibroblast", "Population Healthy Nuclei (%)": 51}
{"compound": "CCc1cccc(CC)c1NC(=O)c1nn(C)c2c1CCc1cnc(Nc3ccc(C(=O)NC4CCN(C)CC4)cc3OC(F)(F)F)nc1-2", "assay.target": "Fibroblast", "Population Healthy Nuclei (%)": 67}

Give Population Healthy Nuclei (%) for all compounds that follow.
1. CCn1c(=O)c(-c2ccc(-c3cncs3)cc2Cl)cc2cnc(Nc3ccc(N4CCN(C)CC4)cc3)nc21
2. Cl.Oc1ccc2c3c1O[C@H]1c4[nH]c5c(c4C[C@@]4(O)[C@@H](C2)N(CC2CC2)CC[C@]314)C[C@@]1(O)[C@H]2Cc3ccc(O)c4c3[C@@]1(CCN2CC1CC1)[C@H]5O4

Given back:
1. 55
2. 66

---

Test system: HEK-293T
protocol.notes: Incucyte cell viability with HEK293T; further: filed as whole numbers so only -1 and 0 and 1 occur
Assay type: toxicity, cell-based
condition.info: human, 12 h, 10 µM, compound concentration 10 uM, replicate number 1, timepoint 12 hours
Consider the following compounds; for each one, report its Growth Rate.
Answers are plain numbers.

{"compound": "CO[C@@H](C)c1c(Nc2ccc([C@@H](N(C)C(=O)C3CCS(=O)(=O)CC3)C(F)(F)F)cc2)cnc2cc(Cl)nn12", "data.value": 0}
{"compound": "O=C(Nc1ccc(-n2nc(-c3cccnc3)cc2C(F)(F)F)cn1)c1ccc(-c2ccccc2)c(F)c1", "data.value": 0}
{"compound": "CC(C)c1onc(-c2c(Cl)cccc2Cl)c1COc1ccc(/C=C/c2cccc(C(=O)O)c2)c(Cl)c1", "data.value": 0}

Give Growth Rate for all compounds that follow.
1. Cc1oncc1C(=O)Nc1ccc(C(F)(F)F)cc1 [LEFLUNOMIDE]
2. CNC(=O)c1ccccc1Nc1cc(Nc2ccc(N3CCOCC3)cc2OC)ncc1C(F)(F)F

Given back:
1: 1; 2: 0

---

Test system: HEK-293T
protocol.notes: Multiplex assay against HEK293T
Assay type: toxicity, cell-based
condition.info: human, 12 h, 10 µM, compound concentration 10 uM, replicate 2
Consider the following compounds; for each one, report its Total Cell Count.

Observe how each entry below is paired with its result.
{"compound": "Cc1ccc(C(=O)Nc2cccc(C(F)(F)F)c2)cc1Nc1nc(-c2cccnc2)nc2c1cnn2C", "Total Cell Count": 190}
{"compound": "C=CCn1c(=O)c2cnc(Nc3ccc(N4CCN(C)CC4)cc3)nc2n1-c1cccc(C(C)(C)O)n1", "Total Cell Count": 1182}
{"compound": "S=C(NCCCc1c[nH]cn1)NCCCN(Cc1ccc(Cl)c(Cl)c1)c1ccc(Br)cn1", "Total Cell Count": 220}

Give Total Cell Count for all compounds that follow.
1. CCc1cccc(CC)c1NC(=O)c1nn(C)c2c1CCc1cnc(Nc3ccc(C(=O)NC4CCN(C)CC4)cc3OC(F)(F)F)nc1-2
2. CN(C)C(=O)C(CCN1CCC(O)(c2ccc(Cl)cc2)CC1)(c1ccccc1)c1ccccc1.Cl [LOPERAMIDE HYDROCHLORIDE]
3. CCN1CCN(c2ccc(Nc3cc(N(C)C(=O)Nc4c(Cl)c(OC)cc(OC)c4Cl)ncn3)cc2)CC1

Given back:
1: 152; 2: 158; 3: 1732

---

System: U2OS
protocol.notes: Multiplex assay against U2OS
Type: toxicity, cell-based
condition.info: human, 48 h, 1 µM, compound concentration 1 uM, replicate 2
Recorded Population Membrane Permeable-Phenotype (%) determines the group label, using low group = under 5%, middle group = from 5% up to 9%, high group = 9% and over

{"compound": "CCc1cccc(CC)c1NC(=O)c1nn(C)c2c1CCc1cnc(Nc3ccc(C(=O)NC4CCN(C)CC4)cc3OC(F)(F)F)nc1-2", "assigned.class": "middle group"}
{"compound": "O=C(Nc1ccc(-n2nc(-c3cccnc3)cc2C(F)(F)F)cn1)c1ccc(-c2ccccc2)c(F)c1", "assigned.class": "low group"}

Asked: Band for C=C1/C(=C\C=C2/CCC[C@]3(C)[C@@H]([C@H](C)/C=C/[C@H](C)C(C)C)CC[C@@H]23)C[C@@H](O)C[C@@H]1O ?
Given back: low group

Asked: Band for Cc1ccc(C(=O)Nc2cccc(C(F)(F)F)c2)cc1Nc1nc(-c2cccnc2)nc2c1cnn2C ?
Given back: high group

Asked: Band for CNc1cc(Oc2cc(C(=O)Nc3cc(N4CCN(C)CC4)cc(C(F)(F)F)c3)ccc2C)ncn1 ?
Given back: high group

Asked: Band for CCOc1cc(C(=O)N2CCC(N3CCN(C)CC3)CC2)ccc1Nc1ncc2c(n1)N(C1CCCC1)c1ccccc1C(=O)N2C ?
Given back: high group

Asked: Band for Cl.O=c1c2cccn2c2ccccc2n1CCCN1CCC(c2ccc(Cl)cc2)CC1 ?
Given back: low group
